experiment summary: Inhibition of mouse GAT3 expressed in human HEK293 cell line assessed as inhibition of [3H]GABA uptake measured after 40 mins […]
Property: pIC50; scope: individual compounds
# pIC50 is unitless: minus log10 of the molar concentration; print number only

The cases that follow already have their pIC50 on record.
CN(CCC=C1c2ccccc2CCc2ccccc21)C(CCO)C(=O)NCc1ccccc1 (stereo not drawn) | 4.94
CN(CCC=C1c2ccccc2C=Cc2ccccc21)C(CCO)C(=O)NCc1ccccc1Cl (stereo not drawn) | 5.05

API: the following record is the query input.
Field pIC50 (entry CN(CCC=C1c2ccccc2CCc2ccccc21)C(CCN)C(=O)NCc1ccccc1Cl (stereo not drawn) ) reads 5.09
